Target: TYK2 (aa 871-1187, catalytic domain, GST-tag) (Homo sapiens)
Construct: JAK1 (aa 850-1154) and TYK2 (aa 871-1187) are expressed with an N-terminally fused GST-tag; GST (N); purchased Carna Biosciences, Inc; host or cells: baculovirus expression system
Sequence (P29597 871-1187): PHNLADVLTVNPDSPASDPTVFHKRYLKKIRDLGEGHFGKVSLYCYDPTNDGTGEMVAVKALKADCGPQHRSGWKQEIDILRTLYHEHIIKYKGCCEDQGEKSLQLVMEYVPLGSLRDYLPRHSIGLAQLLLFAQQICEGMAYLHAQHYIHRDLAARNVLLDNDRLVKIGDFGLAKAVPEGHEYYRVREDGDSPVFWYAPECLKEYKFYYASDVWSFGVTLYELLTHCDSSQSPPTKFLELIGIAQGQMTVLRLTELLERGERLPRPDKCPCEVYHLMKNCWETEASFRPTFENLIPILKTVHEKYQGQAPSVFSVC
Assay: JAK kinase assay (HTRF, phosphorylation of TK substrate-biotin), TYK2
Type: biochemical
Settings: ATP at Km (13 μM); read-out: TYK2 kinase inhibitory activity (EC50 indicator)
pEC50: −log10 of the molar value.
Property Name: pEC50

Name the reported pEC50 value associated with the compound CC(=O)NCC(=O)N1[C@@H]2CC[C@@H]1CN(c1ncnc3[nH]ccc13)C2 [Example 34]
< 6.30

Name the reported pEC50 value associated with the compound O=C(c1ccc(S(=O)(=O)NCc2cccs2)cc1)N1CCN(c2ncnc3[nH]ccc23)CC12CC2 [Example 204]
6.30 to 7.00

Name the reported pEC50 value associated with the compound Cc1cc2[nH]c(C(=O)N3[C@@H]4CC[C@H]3CN(c3ncnc5[nH]ccc35)C4)cc2cc1F [Example 110]
< 6.30

Name the reported pEC50 value associated with the compound N#Cc1ccc(CS(=O)(=O)N2[C@@H]3CC[C@H]2CN(c2ncnc4[nH]ccc24)C3)cc1 [Example 78]
< 6.30

---

target: TYK2 (aa 871-1187, catalytic domain, GST-tag) (Homo sapiens); construct: JAK1 (aa 850-1154) and TYK2 (aa 871-1187) are expressed with an N-terminally fused GST-tag; GST (N); purchased Carna Biosciences, Inc; host or cells: baculovirus expression system; assay: JAK kinase assay (HTRF, phosphorylation of TK substrate-biotin), TYK2; assay type: biochemical; conditions: HTRF assay, ATP at Km (13 μM); read-out: TYK2 kinase inhibitory activity (EC50 indicator)
# EC50 listing for each entry below

Sample records with EC50:
| Molecule | Property Name | Result |
| --- | --- | --- |
| N#Cc1ccc(C(=O)C(=O)N2CCN(c3ncnc4[nH]ccc34)CC23CC3)cc1 | EC50 | 100 to 500 nM |
| COc1cnc2[nH]ccc2c1N1CCN(C(=O)c2ccc(C#N)cc2)C2(CC2)C1 | EC50 | > 500 nM |
| Cc1nc2ccccc2nc1C(=O)N1CCN(c2ncnc3[nH]ccc23)CC12CC2 | EC50 | < 100 nM |

Name the reported EC50 value associated with the molecule Cc1ccsc1C(=O)N1CCN(c2ccnc3[nH]ccc23)CC12CC2
> 500 nM

Name the reported EC50 value associated with the molecule CS(=O)(=O)c1ccc(C(=O)N2[C@@H]3CC[C@@H]2CN(c2ncnc4[nH]ccc24)C3)cc1
> 500 nM

Name the reported EC50 value associated with the molecule COc1cc(OC)cc(C(=O)N2CCN(c3ncnc4[nH]ccc34)CC23CC3)c1
100 to 500 nM

Name the reported EC50 value associated with the molecule O=C(C1CCc2ccccc21)N1CCN(c2ncnc3[nH]ccc23)CC12CC2 (centres unmarked)
> 500 nM

Name the reported EC50 value associated with the molecule Cc1ccc(C(=O)N2C[C@@H]3C[C@H]2CN3c2ncnc3[nH]ccc23)s1
> 500 nM

Name the reported EC50 value associated with the molecule COc1csc(C(=O)N2CCN(c3ncnc4[nH]ccc34)CC23CC3)c1
< 100 nM

Name the reported EC50 value associated with the molecule Cc1ccc2sc(C(=O)N3[C@@H]4CC[C@H]3CN(c3ncnc5[nH]ccc35)C4)cc2c1
> 500 nM
